# Test system: MS2 coat protein
# experiment summary: apparent KD of MS2 coat protein; higher = weaker reporter binding
# particulars: Eterna round: R107; input ligand: theophylline 2 mM
measured parameter: apparent KD of MS2 coat protein (nM)
The figure you give is taken to be in nM; do not add the unit.

# example entries with known answers
sequence entry	units of measure	quantitative readout
GUAAGAGUAGGAAGGAGCGCUUUACAUGAGGAUCACCCAUGUGUGCCCUCAAUUUCGGUAAAGCAGGUAGGUCGCCUAAACUUGC [Tiqurabi]	nM	67.5
AAAUAAAUACAUGAGGAUCACCCAUGUGAAGGAGCGCGCGUUAGCGCAGGUAGGUCGCACAUGAACUCCAAAGUGCGAAAGCACA [MAT - Exclusion Arginine A - Mod of Eli - D9]	nM	34.1

Next sequence, apparent KD of MS2 coat protein to be filled in.
*Q* // lookup apparent KD of MS2 coat protein for GGACUAACCAGAAGGAGCGGCACGCAGAAACUGCUAAUUCCUCCGCACGAGGAUCACCCGUGUCAGGUAGGUCGCUGGUUAGUCG [ArgBX 28]
*A* 14.8
